- target: Guanine nucleotide-binding protein G(q) subunit alpha (Homo sapiens) (UniProt P50148)
- Sequence (whole entry): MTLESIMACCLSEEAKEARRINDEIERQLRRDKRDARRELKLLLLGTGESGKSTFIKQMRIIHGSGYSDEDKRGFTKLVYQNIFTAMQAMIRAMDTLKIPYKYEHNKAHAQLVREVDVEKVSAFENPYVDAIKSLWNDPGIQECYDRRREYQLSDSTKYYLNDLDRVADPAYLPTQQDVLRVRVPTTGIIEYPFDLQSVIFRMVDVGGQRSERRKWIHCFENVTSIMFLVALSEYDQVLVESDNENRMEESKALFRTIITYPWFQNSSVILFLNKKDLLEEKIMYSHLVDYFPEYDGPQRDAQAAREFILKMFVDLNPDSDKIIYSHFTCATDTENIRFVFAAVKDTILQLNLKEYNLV
- assay remarks: Inhibition of Galpha-q in human HEK293 cells assessed as reduction in CCh-induced IP1 accumulation at 100 uM preincubated for 2 hrs followed by CCh stimulation and measured after 35 mins by time resolved fluorescence assay
- Type: cell-based
Calls of active or inactive are those of the source. The rule behind the calls is not given here.
Can you answer with just one of these options? active, inactive

query: Could you check what this test reported for `O=C1CCn2cc(-c3ccccc3)nc2CN1` ?
result: inactive

query: Could you check what this test reported for `O=C1CCn2cc(-c3ccccc3)nc2[C@H](CC2CCCCC2)N1` ?
result: inactive

query: Could you check what this test reported for `N[C@@H](CS)C(=O)N1CCNC(=O)C1` ?
result: inactive

query: Could you check what this test reported for `O=C1Cn2cc(-c3ccccc3)nc2CN1` ?
result: inactive

query: Could you check what this test reported for `O=C1Cn2cc(-c3ccccc3)nc2CCN1` ?
result: inactive

query: Could you check what this test reported for `N[C@@H](CS)C(=O)N1CCn2cc(-c3ccccc3)nc2[C@@H]1CC1CCCCC1` ?
result: active

query: Could you check what this test reported for `N[C@@H](CS)C(=O)N1CCNC(=O)[C@@H]1CC1CCCCC1` ?
result: inactive

query: Could you check what this test reported for `O=C1Cn2cc(-c3ccccc3)nc2[C@H](CC2CCCCC2)N1` ?
result: inactive

query: Could you check what this test reported for `O=C1Cn2cc(-c3ccccc3)nc2[C@H](CC2CCCCC2)CN1` ?
result: inactive

All values here come from ChEMBL document CHEMBL4334433.
